Where these numbers come from: ChEMBL document CHEMBL1201862

Test system: SNB-75
Experimental details: NCI tumour cell line growth inhibition, 48 h
Calls of active or inactive are those of the source. No stated cut-off is given here; in the data, active = GI50 up to about 1.1 µM and inactive = higher.
Labels: active, inactive

{"Molecule": "COC(=O)c1c(C)cc2c(c1O)C1(O)C(=O)c3cc4c(c(O)c3C(=O)C1(OC)C(O)C2)C(=O)C=C(NC1OC(C)C(OC)C(O)C1OC)C4=O (stereo not given)", "Classification": "active"}
{"Molecule": "CC1(C)CC2C(C1=O)C1(C)CCCC2(C)C1=O (stereo not given)", "Classification": "inactive"}
{"Molecule": "COc1ccc(/C=C/C(=O)c2cc(C(=O)O)c(OC)cc2OC)cc1OC", "Classification": "inactive"}
{"Molecule": "C=CCN1C(=O)/C(=C/c2ccccc2)N=C1SC1OC(COC(=O)c2ccccc2)C(OC(=O)c2ccccc2)C1OC(=O)c1ccccc1 (stereo not given)", "Classification": "inactive"}
{"Molecule": "O=c1n(CCO)nc2n1CCCN2", "Classification": "inactive"}
{"Molecule": "C/C(O)=C/C(=O)c1[nH]c(C(=O)O)cc1C1CCN(Cc2ccccc2)C1=O (stereo not given)", "Classification": "inactive"}
{"Molecule": "O=[N+]([O-])c1ccc2c3c1[C@@H]1O[C@@H]1c1cccc(c1-3)[C@@H]1O[C@H]21", "Classification": "inactive"}
{"Molecule": "CCOCC(=O)N(C)c1cccc2c3c(n(C)c12)CCCCC3", "Classification": "inactive"}
{"Molecule": "Cn1c(=O)oc2cc(Br)ccc21", "Classification": "inactive"}
{"Molecule": "Cc1cc(OCC(O)CO)ccc1Cl (stereo not given)", "Classification": "inactive"}
